Data provenance is PubChem BioAssay (NCI).

- Test system: CAKI-1 renal
- Test: NCI tumour cell line growth inhibition, 48 h
Measured Endpoint: TGI

// query Return TGI for the following compound: CCN1C(=O)N(CC)C2C1NN=c1s/c(=C\c3cccnc3)c(=O)n12 (stereo unspecified)
// result > 100 µM

// query Return TGI for the following compound: NC(=O)C(=O)N/N=C1/c2ccccc2CC1C1(O)C(=O)Nc2c(Cl)cc(Cl)cc21 (stereo unspecified)
// result > 100 µM

// query Return TGI for the following compound: `C=C1C(=O)O[C@H]2[C@H]1CC/C(COC(=O)NCc1ccccc1OC)=C\CC[C@@]1(C)O[C@@H]21`
// result 2.77 µM

// query Return TGI for the following compound: CCOC1CC(=O)c2c(Br)sc(Br)c21 (stereo unspecified)
// result 31 µM

// query Return TGI for the following compound: COc1cc(C2c3cc4c(cc3OC(NN=C(C)C)C2C)OCO4)cc(OC)c1O (stereo unspecified)
// result > 100 µM

// query Return TGI for the following compound: `CN1CCN(CCc2cccc(C(=O)c3cnn(-c4ccc(F)cc4)c3N)c2)CC1`
// result > 25 µM

###

- Tested on: SK-MEL-28 melanoma
- Test: NCI tumour cell line growth inhibition, 48 h
Task for the reader: assign each of the following molecules its reported TGI.

// query Return TGI for the following molecule: `Nc1c2ccccc2nc2c1ccc1ncccc12`
// result > 100 µM

// query Return TGI for the following molecule: `Nc1nn2c(C(Br)Br)cc(C(Br)Br)nc2c1[N+](=O)[O-]`
// result 2.88 µM

// query Return TGI for the following molecule: `CCN(CC)CCOC(NC(C)=O)(c1ccccc1)c1ccccc1`
// result > 100 µM

// query Return TGI for the following molecule: `Cc1ccc(/C=C2\CN(C(=O)OC(C)(C)C)C/C(=C\c3ccc(C)cc3)C2=O)cc1`
// result > 100 µM

// query Return TGI for the following molecule: `COc1ccc(Nc2nc3ccc(C(F)(F)F)cc3nc2C(=O)O)cc1OC`
// result > 100 µM

// query Return TGI for the following molecule: Cc1cccc(NC(=O)CC(=O)N2N=C(N(CCC#N)c3ccc(Cl)cc3)CC2c2ccccc2)c1 (stereo unspecified)
// result > 100 µM

// query Return TGI for the following molecule: `O=C(O)[C@@H]1C[C@@H](O)CN1C(=O)OCc1ccccc1`
// result > 100 µM

// query Return TGI for the following molecule: CC1(C)SC2C(NC(=O)C(N)c3ccccc3)C(=O)N2C1C(=O)O (stereo unspecified)
// result > 100 µM

// query Return TGI for the following molecule: `Nc1cc2cccc[n+]2c2cc(Cl)ccc12`
// result 37.3 µM

// query Return TGI for the following molecule: CCCCCn1c(=N)n(CC(O)COc2cccc(C)c2)c2ccccc21 (stereo unspecified)
// result 14.7 µM

// query Return TGI for the following molecule: `CC(C)C(=O)Nc1nc2nc[nH]c2c(=O)[nH]1`
// result > 100 µM

###

- Test system: SF-268 CNS
- Test: NCI tumour cell line growth inhibition, 48 h
Task for the reader: assign each of the following compounds its reported TGI.

// query Return TGI for the following compound: CCOP(=O)(OCC)C1C(CO)OC(n2ccc(=O)[nH]c2=O)C1O (stereo unspecified)
// result > 100 µM

// query Return TGI for the following compound: Cc1nn(C(=O)Cc2ccccc2)c2c1C(c1ccccc1O)SC(N)=N2 (stereo unspecified)
// result > 100 µM

// query Return TGI for the following compound: `CCN(CC)c1ccc(C(=C2C=CC(=[N+](CC)Cc3cccc(S(=O)(=O)O)c3)C=C2)c2ccc(N(CC)Cc3cccc(S(=O)(=O)O)c3)cc2)cc1`
// result > 79.4 µM

// query Return TGI for the following compound: `CCCN=Cc1cc(Cc2ccc(O)c(C=NCCC)c2)ccc1O`
// result 46.4 µM

// query Return TGI for the following compound: `CC1(C)O[C@@H]2COC(=O)[C@@H]2O1`
// result > 100 µM

// query Return TGI for the following compound: COC1(C(=O)N[C@@H](C)c2ccc(-n3cc(F)cn3)nc2)CCC(c2nc(C)cc(Nc3cc(C)[nH]n3)n2)CC1 (stereo partly specified)
// result 8.04 µM

// query Return TGI for the following compound: `CC1=NOC(=O)/C1=C/c1ccccc1O`
// result > 100 µM

// query Return TGI for the following compound: `CN(C)S(=O)(=O)c1ccc(NC(=O)COC(=O)c2ccc(S(=O)(=O)N3CCCCC3)cc2)cc1`
// result > 100 µM

// query Return TGI for the following compound: `Cc1ccc(S(=O)(=O)N2CCSCCSCCSCCSCC2)cc1`
// result > 75.8 µM

// query Return TGI for the following compound: COc1ccc(CC(CO)NC(=O)OCc2ccccc2)cc1Oc1ccc(CC(CO)NC(=O)OCc2ccccc2)cc1 (stereo unspecified)
// result 29.4 µM

// query Return TGI for the following compound: `O=C(c1ccc(F)cc1)c1cccc(C(=O)c2ccc(F)cc2)n1`
// result 67.8 µM

// query Return TGI for the following compound: `O=c1cc(/C=C/c2ccc(O)c(O)c2)oc(/C=C/c2ccc(O)c(O)c2)c1`
// result 13.2 µM

// query Return TGI for the following compound: `COc1ccc(C(=O)/C=C/c2ccc(/C=C/c3cc(OC)c(OC)c(OC)c3)cc2)cc1`
// result 88.3 µM

// query Return TGI for the following compound: `COc1ccc(Nc2nc3ccc(C(F)(F)F)cc3nc2C(=O)O)cc1OC`
// result > 100 µM

// query Return TGI for the following compound: `CCNC(=O)Nc1ccccn1`
// result > 100 µM

// query Return TGI for the following compound: `COc1cc(Cl)cc(-c2nn(C(=O)NCCN3CCOCC3)cc2-c2ccncc2)c1`
// result > 100 µM

// query Return TGI for the following compound: O=C(c1ccccc1)C1N=NCC1c1ccc([N+](=O)[O-])cc1 (stereo unspecified)
// result > 100 µM

// query Return TGI for the following compound: `CCCc1[nH]nc(CCC(=O)N(Cc2ccccc2)Cc2ccccc2)c1CC`
// result > 100 µM

// query Return TGI for the following compound: CC1(C)SC2C(NC(=O)C(N)c3ccccc3)C(=O)N2C1C(=O)O (stereo unspecified)
// result > 100 µM

// query Return TGI for the following compound: `Cc1ccc2c(ccc3c[n+]4c5ccccc5ccc4n32)c1`
// result 2.13 µM

// query Return TGI for the following compound: `Cc1[c-]onc1C.Cc1[c-]onc1C.[Ag].[Ag].[NH-]S(=O)(=O)c1ccc(N=Nc2cc(N=Nc3ccc(S([NH-])(=O)=O)cc3)c3c(NC(=O)C(Cl)Cl)cccc3c2OC(=O)C(Cl)Cl)cc1`
// result 28.1 µM

###

- System: SK-MEL-5 melanoma
- Test: NCI tumour cell line growth inhibition, 48 h
Measured Endpoint: TGI

// query Return TGI for the following molecule: NC(CSCc1ccccc1)C(=O)O (stereo not given)
// result > 100 µM

// query Return TGI for the following molecule: `Cc1ccncc1.[O]=[Ge].[O]=[Ge].[O]=[Ge].[O]=[Ge].[O]=[Ge].[O]=[Ge][OH].[O]=[Ge][OH]`
// result > 100 µM

// query Return TGI for the following molecule: `CC1=NCCc2c1[nH]c1cc(O)ccc21`
// result > 100 µM

// query Return TGI for the following molecule: `Cc1ccc(S(=O)(=O)N2CCSCCSCCSCCSCC2)cc1`
// result > 86.9 µM

// query Return TGI for the following molecule: `C[C@H](Nc1ncnc2nc[nH]c12)c1cc2cccc(Cl)c2c(=O)n1-c1ccccc1`
// result > 100 µM

// query Return TGI for the following molecule: `Cc1occc1C(=S)Nc1ccc(Cl)c(COC(C)(C)C)c1`
// result 33.4 µM

// query Return TGI for the following molecule: `Nc1cc2cccc[n+]2c2cc(Cl)ccc12`
// result 23.2 µM

// query Return TGI for the following molecule: CN(C)C(CN)CC1=C(CC(CN)N(C)C)CCC1 (stereo not given)
// result > 100 µM

// query Return TGI for the following molecule: COc1cc(C2c3cc4c(cc3OC(N3CCCC3)C2C)OCO4)cc(OC)c1OC (stereo not given)
// result 5.06 µM

// query Return TGI for the following molecule: CCC12C[N+]3([O-])CCc4c([nH]c5ccccc45)C(C(=O)OC)(c4cc5c(cc4OC)N(C)C4C(O)(C(=O)OC)C(OC(C)=O)C6(CC)C=CCN7CCC54C76)CC(C3)C1O2 (stereo not given)
// result 12 µM

// query Return TGI for the following molecule: Cc1cccc(NC(=O)CC(=O)N2N=C(N(CCC#N)c3ccc(Cl)cc3)CC2c2ccccc2)c1 (stereo not given)
// result > 100 µM

// query Return TGI for the following molecule: `OC[C@@H](O)[C@H]1NC[C@@H](O)[C@H]1O`
// result > 100 µM

// query Return TGI for the following molecule: `ClCCn1c(CCl)nc2ccc(Cl)cc21`
// result 0.329 µM

// query Return TGI for the following molecule: CNC(=O)OCc1nc(SC2CCCCO2)n(C)c1COC(=O)NC (stereo not given)
// result > 100 µM

// query Return TGI for the following molecule: `O=C(Nc1cccc2cnccc12)c1cc2c(cc1Cl)Sc1nccn1S2(=O)=O`
// result 26.2 µM

// query Return TGI for the following molecule: `COc1ccc(-c2cc(=O)c3cc4c(cc3[nH]2)OCO4)c(OC)c1OC`
// result > 100 µM

// query Return TGI for the following molecule: CC(=O)NC(CCCNCc1ccccc1)C(=O)NCc1ccccc1 (stereo not given)
// result > 100 µM

// query Return TGI for the following molecule: `C/C(=C\c1ccccc1)C(=O)CCN1CCOCC1`
// result > 60.1 µM

// query Return TGI for the following molecule: `O=C1OC(=O)C(c2c[nH]c3ccccc23)=C1c1c[nH]c2ccccc12`
// result > 25 µM

// query Return TGI for the following molecule: `O=C1NCCCc2nonc21`
// result > 100 µM
